Listed next: entries and their corresponding MIC.
- Test system: Streptococcus pneumoniae
- assay-notes: Antibacterial activity against erythromycin-resistant Streptococcus pneumoniae A22072 expressing mefA gene
- Assay type: functional
Returns: string containing the numeric result and its unit.

| record-smiles | recorded-endpoint | reading |
| --- | --- | --- |
| CC[C@H]1OC(=O)[C@H](C)[C@@H](O[C@H]2C[C@@](C)(OC)[C@@H](OC(=O)NCc3cn(Cc4ccc(Cl)cc4)nn3)[C@H](C)O2)[C@H](C)[C@@H](O[C@@H]2O[C@H](C)C[C@H](N(C)C)[C@H]2O)[C@](C)(O)C[C@@H](C)CN(C)[C@H](C)[C@@H](O)[C@]1(C)O | MIC | 1 µg/mL |
| CC[C@H]1OC(=O)[C@H](C)[C@@H](O[C@H]2C[C@@](C)(OC)[C@@H](OC(=O)NCc3cn(Cc4ccccc4)nn3)[C@H](C)O2)[C@H](C)[C@@H](O[C@@H]2O[C@H](C)C[C@H](N(C)C)[C@H]2O)[C@](C)(O)C[C@@H](C)CN(C)[C@H](C)[C@@H](O)[C@]1(C)O | MIC | 1 µg/mL |

From here, focus on the item given below.
Challenge: GET /values?readout=MIC&item= CC[C@H]1OC(=O)[C@H](C)[C@@H](O[C@H]2C[C@@](C)(OC)[C@@H](OC(=O)NCc3cn(Cc4ccc([N+](=O)[O-])cc4)nn3)[C@H](C)O2)[C@H](C)[C@@H](O[C@@H]2O[C@H](C)C[C@H](N(C)C)[C@H]2O)[C@](C)(O)C[C@@H](C)CN(C)[C@H](C)[C@H]2OC(=O)O[C@@]21C
Response given: 4 µg/mL

Provenance of the data: ChEMBL document CHEMBL4052714
